- protocol_text: Inhibition of Escherichia coli FabH overexpressed in Escherichia coli DH10B cells by liquid scintillation counting
reported_property: IC50 (µM)

# count of solved cases: 4
>>> observed("CN1CCN(CCCOc2cc(O)c3c(=O)cc(-c4ccccc4)oc3c2)CC1")
5.2
>>> observed("CCN(CC)CCOc1cc(O)c2c(=O)cc(-c3ccccc3)oc2c1")
70
>>> observed("O=c1cc(-c2ccccc2)oc2cc(OCCN3CCNCC3)cc(O)c12")
11.2
>>> observed("O=c1cc(-c2ccccc2)oc2cc(OCCCN3CCCC3)cc(O)c12")
3.1

1. O=c1cc(-c2ccccc2)oc2cc(OCCCN3CCNCC3)cc(O)c12
2. CCCNCCOc1cc(O)c2c(=O)cc(-c3ccccc3)oc2c1
Q: Which has the higher IC50, 1 or 2 ? # respond with the chosen item's label
Ans: 2
(2: 54 µM, 1: 6.6 µM)

Data provenance is ChEMBL document CHEMBL1152526.
